- Tested on: A427 lung cancer cell line (KRAS G12D mutation)
- test method notes: Proliferation inhibition measured by CTG (CellTiter Glo), A427
- Assay type: cell-based
- assay conditions: Homo sapiens, A-427; Table 1; CTG, 120 hours incubation; class symbol
Measured IC50, listed per entry.

Observe how each entry below is paired with its result.
molecule	IC50
CN1CCC[C@H]1COc1nc2c(c(N3CCn4nncc4C3)n1)CCN(c1cccc3cccc(Cl)c13)C2	100 to 1000 nM
CN1CCC[C@H]1COc1nc2c(c(N3CCn4cncc4C3)n1)CCN(c1cccc3cccc(Cl)c13)C2	≤ 100 nM
CN1CCC[C@H]1COc1nc(N2CCn3cncc3C2)c2ccc(-c3cccc4cccc(Cl)c34)cc2n1	100 to 1000 nM
CN1CCC[C@H]1COc1nc2c(c(N3CCn4cnc(C#N)c4C3)n1)CCN(c1cccc3cccc(Cl)c13)C2	≤ 100 nM
CN1CCC[C@H]1COc1nc2c(c(N3CCn4c(cnc4CO)C3)n1)CCN(c1cccc3cccc(Cl)c13)C2	100 to 1000 nM
CN1CCC[C@H]1COc1nc2c(c(N3CCn4c(cnc4N)C3)n1)CCN(c1cccc3cccc(Cl)c13)C2	100 to 1000 nM
CN1CCC[C@H]1COc1nc2c(c(N3CCn4c(cnc4C#N)C3)n1)CCN(c1cccc3cccc(Cl)c13)C2	100 to 1000 nM
CN1CCC[C@@H]1COc1nc2c(c(N3CCn4cncc4C3)n1)CO[C@H](c1cccc3cccc(Cl)c13)C2	100 to 1000 nM

query: Given CC1CN(c2nc(OC[C@@H]3CCCN3C)nc3c2CCN(c2cccc4cccc(Cl)c24)C3)Cc2cncn21 (some centres unmarked) , respond with its IC50.
result: 100 to 1000 nM

query: Report IC50, nothing else, for this molecule: Cc1cccc2cccc(N3CCc4c(nc(OC[C@@H]5CCCN5C)nc4N4CCn5cncc5C4)C3)c12
result: 100 to 1000 nM

query: # return recorded IC50 for entry CN(C)CCOc1nc2c(c(N3CCn4cncc4C3)n1)CCN(c1cccc3cccc(Cl)c13)C2
result: ≤ 100 nM

====

Measured pIC50, listed per entry.
- Test system: AGS gastric cancer cell line (KRAS G12D mutation)
- test method notes: Proliferation inhibition measured by CTG (CellTiter Glo), AGS
- Assay type: cell-based
- assay conditions: Table 3; CTG, 120 hours incubation; class symbol; read-out: IC50 (AGS)
- From the text: NCI-H358 is a human non-small cell lung cancer cell line with KRAS G12C mutation; PANC-1 and AsPC-1 are pancreatic cancer cell lines with KRAS G12D mutation; AGS is a gastric cancer cell line with KRAS G12D mutation; A427 is a lung cancer cell line with KRAS G12D mutation; THP-1 is a leukemia cell line with NRAS G12D mutation; Hs 578T is a breast cancer cell line with HRAS G12D mutation; SW480 is a colon cancer cell lines with KRAS G12V mutation; A375 is a wild type malignant melanoma cell line. […]
pIC50: −log10 of the molar value.

Some entries whose results are on file:
compound	reported measurement
CC1Cc2[nH]ncc2CN1c1nc(OC[C@@H]2CCCN2C)nc2c1CCN(c1cccc3cccc(Cl)c13)C2 (stereo partly shown)	≥ 7.00
C[C@@H]1Cn2cncc2CN1c1nc(OC[C@@H]2CCCN2C)nc2c1CCN(c1cccc3cccc(Cl)c13)C2	≥ 7.00
C[C@@H]1Cn2cnc(F)c2CN1c1nc(OC[C@@H]2CCCN2C)nc2c1CCN(c1cc(NS(C)(=O)=O)cc3cccc(Cl)c13)C2	6.00 to 7.00

Consider the record given below.
query: Determine from records and report pIC50 for C[C@@H]1Cn2cncc2CN1c1nc(OC[C@@H]2CCCN2C)nc2c1CCN(c1cccc3ccccc13)C2
result: ≥ 7.00
